meta.source: ChEMBL document CHEMBL5370556

Here the recorded selectivity ratio is given for each entry.
assay: Selectivity index, ratio of CC50 for human 293T/ACE2 cells to EC50 for SARS-CoV-2 Omicron; type: toxicity; conditions: read-out: Ratio CC50/EC50
Answer with a bare number; do not write a unit.

Qu. Which selectivity ratio is listed for C=C(C)[C@@H]1CC[C@]2(C(=O)NCc3cccs3)CC[C@]3(C)[C@H](CC[C@@H]4[C@@]5(C)CC[C@H](O[C@@H]6O[C@H](CO)[C@@H](O[C@@H]7O[C@@H](C)[C@H](O)[C@@H](O)[C@H]7O)[C@H](O)[C@H]6O[C@@H]6O[C@@H](C)[C@H](O)[C@@H](O)[C@H]6O)C(C)(C)[C@@H]5CC[C@]43C)[C@@H]12 ?
Ans. 6.81

Qu. Reported selectivity ratio for C=C(C)[C@@H]1CC[C@]2(C(=O)Nc3ccccc3Cl)CC[C@]3(C)[C@H](CC[C@@H]4[C@@]5(C)CC[C@H](O[C@@H]6O[C@H](CO)[C@@H](O[C@@H]7O[C@@H](C)[C@H](O)[C@@H](O)[C@H]7O)[C@H](O)[C@H]6O[C@@H]6O[C@@H](C)[C@H](O)[C@@H](O)[C@H]6O)C(C)(C)[C@@H]5CC[C@]43C)[C@@H]12 : what is it?
Ans. 8.7

Qu. Reported selectivity ratio for C=C(C)[C@@H]1CC[C@]2(C(=O)NCc3ccccc3)CC[C@]3(C)[C@H](CC[C@@H]4[C@@]5(C)CC[C@H](O[C@@H]6O[C@H](CO)[C@@H](O[C@@H]7O[C@@H](C)[C@H](O)[C@@H](O)[C@H]7O)[C@H](O)[C@H]6O[C@@H]6O[C@@H](C)[C@H](O)[C@@H](O)[C@H]6O)C(C)(C)[C@@H]5CC[C@]43C)[C@@H]12 : what is it?
Ans. 44.9
